Could you please report measured cytotoxicity at 48 h, 25 ug/ml for the items listed next?
- test protocol: Cytotoxicity against mouse RAW264.7 cells assessed as reduction in cell viability at 25 ug/ml incubated for 48 hrs by MTT assay relative to control
- Format: cell-based
- run parameters: read-out: INH
# output: bare number, implied unit %

Task: Look up and report measured cytotoxicity at 48 h, 25 ug/ml for this entry: Cc1nn(-c2ccccc2)c(-n2cncn2)c1C1C2CCCN2C2(C(=O)Nc3ccccc32)C1C(=O)c1ccc(Br)cc1 (centres undefined)
Output: 27.1

Task: Let me know recorded cytotoxicity at 48 h, 25 ug/ml for Cc1nn(-c2ccccc2)c(-n2cncn2)c1C1C2CCCN2C2(C(=O)Nc3ccc(Cl)cc32)C1C(=O)c1ccccc1 (centres undefined) , thanks.
Output: 19.8

Task: Look up and state reported cytotoxicity at 48 h, 25 ug/ml for Cc1nn(-c2ccccc2)c(-n2cncn2)c1C1C2CCCN2C2(C(=O)Nc3ccc(Br)cc32)C1C(=O)c1ccccc1 (centres undefined)
Output: 18.6

Task: Note cytotoxicity at 48 h, 25 ug/ml for the compound shown: Cc1nn(-c2ccccc2)c(-n2cncn2)c1C1C2CCCN2C2(C(=O)Nc3ccc(Br)cc32)C1C(=O)c1ccc([N+](=O)[O-])cc1 (centres undefined)
Output: 26.4

Task: Supply recorded cytotoxicity at 48 h, 25 ug/ml for Cc1nn(-c2ccccc2)c(-n2cncn2)c1C1C2CCCN2C2(C(=O)Nc3ccc(Cl)cc32)C1C(=O)c1ccc([N+](=O)[O-])cc1 (centres undefined) here.
Output: 24.9

Task: # return recorded cytotoxicity at 48 h, 25 ug/ml for input Cc1nn(-c2ccccc2)c(-n2cncn2)c1C1C2CCCN2C2(C(=O)Nc3ccc(Br)cc32)C1C(=O)c1ccc(Cl)cc1 (centres undefined)
Output: 22.4

Task: Supply measured cytotoxicity at 48 h, 25 ug/ml of COc1ccc(C(=O)C2C(c3c(C)nn(-c4ccccc4)c3-n3cncn3)C3CCCN3C23C(=O)Nc2ccc(Cl)cc23)cc1 (centres undefined) in your reply.
Output: 21.6

Task: Provide measured cytotoxicity at 48 h, 25 ug/ml value, entry: Cc1nn(-c2ccccc2)c(-n2cncn2)c1C1C2CCCN2C2(C(=O)Nc3ccc(Br)cc32)C1C(=O)c1cccc([N+](=O)[O-])c1 (centres undefined)
Output: 20.1

Task: Read off the recorded cytotoxicity at 48 h, 25 ug/ml for Cc1nn(-c2ccccc2)c(-n2cncn2)c1C1C2CCCN2C2(C(=O)Nc3ccccc32)C1C(=O)c1ccc([N+](=O)[O-])cc1 (centres undefined)
Output: 29.6

Task: Please indicate cytotoxicity at 48 h, 25 ug/ml recorded for Cc1nn(-c2ccccc2)c(-n2cncn2)c1C1C2CCCN2C2(C(=O)Nc3ccc(Br)cc32)C1C(=O)c1ccc(Br)cc1 (centres undefined)
Output: 22

Task: Dear colleague, please send me the reported cytotoxicity at 48 h, 25 ug/ml for Cc1nn(-c2ccccc2)c(-n2cncn2)c1C1C2CCCN2C2(C(=O)Nc3ccc(Cl)cc32)C1C(=O)c1cccc([N+](=O)[O-])c1 (centres undefined) when you can.
Output: 19

Task: For the compound Cc1nn(-c2ccccc2)c(-n2cncn2)c1C1C2CCCN2C2(C(=O)Nc3ccccc32)C1C(=O)c1ccc(Cl)cc1 (centres undefined) , report cytotoxicity at 48 h, 25 ug/ml.
Output: 16.9

Task: Query cytotoxicity at 48 h, 25 ug/ml for Cc1nn(-c2ccccc2)c(-n2cncn2)c1C1C2CCCN2C2(C(=O)Nc3ccc(Cl)cc32)C1C(=O)c1ccc(Cl)cc1 (centres undefined)
Output: 17.9

Task: Write down cytotoxicity at 48 h, 25 ug/ml measured for item Cc1nn(-c2ccccc2)c(-n2cncn2)c1C1C2CCCN2C2(C(=O)Nc3ccc(Cl)cc32)C1C(=O)c1ccc(Br)cc1 (centres undefined)
Output: 26.4

Measured values drawn from ChEMBL document CHEMBL4387723 for this set.
